What pIC50 was measured for each of the following?
Molecular target: Metabotropic glutamate receptor 2 (Rattus norvegicus)
Sequence (P31421 whole entry): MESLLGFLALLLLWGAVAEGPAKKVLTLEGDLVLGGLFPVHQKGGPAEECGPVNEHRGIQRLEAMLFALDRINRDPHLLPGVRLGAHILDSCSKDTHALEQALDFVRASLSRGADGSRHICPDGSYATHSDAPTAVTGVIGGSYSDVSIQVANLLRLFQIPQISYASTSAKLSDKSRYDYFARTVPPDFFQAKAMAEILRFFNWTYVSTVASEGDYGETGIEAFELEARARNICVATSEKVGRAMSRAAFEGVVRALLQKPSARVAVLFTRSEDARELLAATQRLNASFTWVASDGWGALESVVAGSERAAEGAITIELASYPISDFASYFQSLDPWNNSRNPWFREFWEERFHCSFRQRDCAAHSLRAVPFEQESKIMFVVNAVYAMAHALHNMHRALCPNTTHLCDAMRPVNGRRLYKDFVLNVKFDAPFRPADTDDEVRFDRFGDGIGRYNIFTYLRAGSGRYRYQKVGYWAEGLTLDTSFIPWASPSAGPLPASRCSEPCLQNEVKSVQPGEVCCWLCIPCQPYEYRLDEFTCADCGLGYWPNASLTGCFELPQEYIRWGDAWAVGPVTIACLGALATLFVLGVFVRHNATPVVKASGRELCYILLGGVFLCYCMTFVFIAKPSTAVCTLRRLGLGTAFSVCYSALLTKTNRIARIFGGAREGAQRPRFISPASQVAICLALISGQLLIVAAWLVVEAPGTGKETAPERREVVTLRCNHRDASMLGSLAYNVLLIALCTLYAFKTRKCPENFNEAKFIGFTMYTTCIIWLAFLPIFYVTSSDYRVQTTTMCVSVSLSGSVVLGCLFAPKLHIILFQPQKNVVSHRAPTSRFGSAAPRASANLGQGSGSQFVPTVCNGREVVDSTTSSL
Experiment: Displacement of [3H]LY354740 from rat recombinant mGluR2 expressed in CHO cells
Format: cell-based
Numbers only, as −log10 of the molar value.

| INPUT SMILES | MEASURED QUANTITY | VALUE OBSERVED |
| --- | --- | --- |
| O=C1CC(c2cccc(-n3ccnc3)c2)=Nc2ccc(C#Cc3ccc(F)cc3)cc2N1 | pIC50 | 8.05 |
| Cc1cn(-c2cccc(C3=Nc4ccc(C#Cc5ccccc5)cc4NC(=O)C3)c2)c(C)n1 | pIC50 | 6.77 |
| O=C1CC(c2cccc(-n3nncc3CO)c2)=Nc2cc(O)c(C#Cc3ccc(F)cc3)cc2N1 | pIC50 | 6.42 |

Go through the list and state pIC50 for each entry.
1. O=C1CC(c2cccc(-n3ccnc3)c2)=Nc2cc(OCCO)c(C#Cc3ccc(F)cc3)cc2N1
2. CN(C)c1cc2c(cc1C#Cc1ccccc1)NC(=O)CC(c1cccc(-n3ccnn3)c1)=N2

1: 7.34; 2: 7.44

Batch request: pIC50 per item, same order as input.
1. O=C1CC(c2cccc(-n3ccnc3)c2)=Nc2cc(O)c(C#Cc3ccc(F)cc3)cc2N1
2. O=C1CC(c2cccc(-n3cncn3)c2)=Nc2ccc(C#Cc3ccc(F)cc3)cc2N1
3. N#CCOc1cc2c(cc1C#Cc1ccccc1)NC(=O)CC(c1cccc(-n3ccnc3)c1)=N2
4. CN(CCO)c1cc2c(cc1C#Cc1ccc(F)cc1)NC(=O)CC(c1cccc(-n3ccnc3)c1)=N2

1: 7.59; 2: 7.01; 3: 7.74; 4: 6.85
